Sourced from ChEMBL document CHEMBL1152244

# System: dengue virus type 3
# assay: Activity of dengue virus 3 recombinant NS3 protease expressed in Escherichia coli C41(DE3) by fluorogenic assay
Non-standard residues stand in square brackets, D forms with d. Residues, ends and D or L forms follow the SMILES beside them. Tyr(3-NO2) = N[C@@H](Cc1ccc(O)c([N+](=O)[O-])c1)C(=O)O; 2Abz = Nc1ccccc1C(=O)O

[
  {
    "compound": "CC(C)C[C@H](NC(=O)[C@@H](NC(=O)CNC(=O)[C@H](C)NC(=O)c1ccccc1N)C(C)C)C(=O)N[C@@H](Cc1ccc(O)c([N+](=O)[O-])c1)C(N)=O (H-[2Abz]AGVL[Tyr(3-NO2)]-NH2)",
    "kcat, s⁻¹": 0.0105
  },
  {
    "compound": "NC(=O)[C@H](Cc1ccc(O)c([N+](=O)[O-])c1)NC(=O)[C@H](CS)NC(=O)[C@@H]1CCCN1C(=O)[C@H](CC(=O)O)NC(=O)CNC(=O)c1ccccc1N (H-[2Abz]GDPC[Tyr(3-NO2)]-NH2)",
    "kcat, s⁻¹": 0.007
  },
  {
    "compound": "CC(C)[C@H](NC(=O)[C@H](C)NC(=O)[C@H](C)NC(=O)c1ccccc1N)C(=O)N[C@@H](CC(=O)O)C(=O)N[C@@H](Cc1ccc(O)c([N+](=O)[O-])c1)C(N)=O (H-[2Abz]AAVD[Tyr(3-NO2)]-NH2)",
    "kcat, s⁻¹": 0.0153
  },
  {
    "compound": "CSCC[C@H](NC(=O)CNC(=O)[C@H](C)NC(=O)[C@H](CO)NC(=O)c1ccccc1N)C(=O)N[C@@H](Cc1ccc(O)c([N+](=O)[O-])c1)C(N)=O (H-[2Abz]SAGM[Tyr(3-NO2)]-NH2)",
    "kcat, s⁻¹": 0.0557
  },
  {
    "compound": "C[C@H](NC(=O)[C@H](CC(N)=O)NC(=O)c1ccccc1N)C(=O)N[C@@H](CS)C(=O)N[C@@H](CS)C(=O)N[C@@H](Cc1ccc(O)c([N+](=O)[O-])c1)C(N)=O (H-[2Abz]NACC[Tyr(3-NO2)]-NH2)",
    "kcat, s⁻¹": 0.0102
  },
  {
    "compound": "CSCC[C@H](NC(=O)[C@H](C)NC(=O)[C@H](C)NC(=O)[C@H](CO)NC(=O)c1ccccc1N)C(=O)N[C@@H](Cc1ccc(O)c([N+](=O)[O-])c1)C(N)=O (H-[2Abz]SAAM[Tyr(3-NO2)]-NH2)",
    "kcat, s⁻¹": 0.03
  },
  {
    "compound": "C[C@@H](O)[C@H](NC(=O)[C@H](CO)NC(=O)[C@H](CC(=O)O)NC(=O)c1ccccc1N)C(=O)N[C@@H](CS)C(=O)N[C@@H](Cc1ccc(O)c([N+](=O)[O-])c1)C(N)=O (H-[2Abz]DSTC[Tyr(3-NO2)]-NH2)",
    "kcat, s⁻¹": 0.00333
  },
  {
    "compound": "CC(C)[C@H](NC(=O)CNC(=O)[C@H](CO)NC(=O)c1ccccc1N)C(=O)N[C@@H](CS)C(=O)N[C@@H](Cc1ccc(O)c([N+](=O)[O-])c1)C(N)=O (H-[2Abz]SGVC[Tyr(3-NO2)]-NH2)",
    "kcat, s⁻¹": 0.0292
  },
  {
    "compound": "C[C@H](NC(=O)CNC(=O)c1ccccc1N)C(=O)N[C@H](C(=O)N[C@@H](Cc1cnc[nH]1)C(=O)N[C@@H](Cc1ccc(O)c([N+](=O)[O-])c1)C(N)=O)[C@@H](C)O (H-[2Abz]GATH[Tyr(3-NO2)]-NH2)",
    "kcat, s⁻¹": 0.0237
  }
]
